Molecular target: Serine/threonine-protein kinase Sgk1 (Homo sapiens)
Test: Inhibition of N-terminal GST-tagged truncated human SGK1 (61 to 431 residues) extracted from Sf21 cells at 10 uM preincubated for 10 mins followed by substrate/ATP addition measured after 50 mins by fluorescence based analysis relative to control
Type: cell-free
Conditions: time 60.0 min
Criterion: inhibition meeting or surpassing 90%. Met: yes (1). Not met: no (0).

Problem: Does `COc1cc(N2CCNCC2)ccc1Nc1cc(C(F)(F)F)c2cc(C(=O)Nc3ccccc3)c(OC)cc2n1` have a reported inhibition of at least 90%?
Result: yes (1)

Problem: Note, next up: `COc1cc(N2CCNCC2)ccc1Nc1cc(C(F)(F)F)c2cc(C(=O)NC(C)C)c(OC)cc2n1`
Result: no (0)

Problem: Note, next up: `COc1ccc(NC(=O)c2cc3c(C(F)(F)F)cc(Nc4ccc(N5CCNCC5)cc4OC)nc3cc2OC)cc1Cl`
Result: yes (1)

Problem: Note, next up: `COc1cc(N2CCNCC2)ccc1Nc1cc(C(F)(F)F)c2cc(C(=O)Nc3ccccn3)c(OC)cc2n1`
Result: no (0)

Problem: Note, next up: `COc1ccc(NC(=O)c2cc3c(C(F)(F)F)cc(Nc4ccc(N5CCNCC5)cc4OC)nc3cc2OC)cc1`
Result: yes (1)

Problem: Note, next up: `COc1ccc(NC(=O)c2cc3c(C(F)(F)F)cc(Nc4ccc(N5CCNCC5)cc4)nc3cc2OC)cc1`
Result: yes (1)

Problem: Note, next up: `COC(=O)c1cc2c(C(F)(F)F)cc(Nc3ccc(N4CCNCC4)cc3)nc2cc1OC`
Result: no (0)
